Quick reference: koff of the listed items.
study.system: MCL-1 (Homo sapiens (Human), UniProt Q07820, K194A/K197A/R201A)
assay.summary: Protein-compound interaction assay (SPR assay, Assay 9)
Type: binding
recorded.conditions: read-out: koff (geometric mean), SPR, 25° C.
Sequence (Q07820 whole entry K194A/K197A/R201A, looked up): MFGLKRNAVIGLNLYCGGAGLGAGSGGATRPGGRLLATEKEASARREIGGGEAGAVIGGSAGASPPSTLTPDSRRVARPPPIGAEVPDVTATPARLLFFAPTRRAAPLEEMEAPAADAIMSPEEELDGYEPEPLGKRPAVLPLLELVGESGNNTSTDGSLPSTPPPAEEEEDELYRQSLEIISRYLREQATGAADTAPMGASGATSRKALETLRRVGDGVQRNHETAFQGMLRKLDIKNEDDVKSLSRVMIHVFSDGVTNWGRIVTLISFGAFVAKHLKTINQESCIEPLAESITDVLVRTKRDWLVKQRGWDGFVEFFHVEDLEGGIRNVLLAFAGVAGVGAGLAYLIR
measured.quantity: koff

compound: Cc1c2c(nn1C)C(C)OCCCCn1c(C(=O)O)c(CCCOc3cccc4ccccc34)c3cccc-2c31 (single isomer, unassigned; stereoisomer 1)
measurement: 0.067 s⁻¹

compound: CCc1c2c(nn1C)C(CCC1CCOCC1)OCCCCn1c(C(=O)O)c(CCCOc3cccc4cc(F)ccc34)c3ccc(Cl)c-2c31 (single isomer, unassigned; enantiomer 1) [Example 61]
measurement: 0.0021 s⁻¹

compound: CCc1c2c(nn1C)C(CCN1CCOCC1)OCCCCn1c(C(=O)O)c(CCCOc3cccc4cc(F)ccc34)c3ccc(F)c-2c31 (single isomer, unassigned; enantiomer 1)
measurement: 0.009 s⁻¹

compound: CCc1c2c(nn1C)C(CCC1CCOCC1)OCCCCn1c(C(=O)O)c(CCCOc3cccc4cc(F)ccc34)c3ccc(Cl)c-2c31 (single isomer, unassigned; enantiomer 1) [Example 63]
measurement: 0.0016 s⁻¹

compound: CCc1c2c(nn1C)C(CCN1CC(F)(F)C1)OCCCCn1c(C(=O)O)c(CCCOc3cccc4cc(F)ccc34)c3ccc(Cl)c-2c31 (single isomer, unassigned; (+))
measurement: 0.0012 s⁻¹

---

System: SUDHL5 cells
assay.summary: Induction of caspase-3/7 activity in SUDHL5 cells (Assay 4)
Type: cell-based
recorded.conditions: read-out: Caspase SUDHL5 EC50 (median); caspase-3/7 induction, 3 h
Param label: returns Condition met when EC50 < 200 nM, returns Condition not met otherwise, including exact equality.

molecule: CCc1c2c(nn1C)C(CCN1CCN(C)CC1)OCCCCn1c(C(=O)O)c(CCCOc3cccc4cc(F)ccc34)c3ccc(Cl)c-2c31 (single isomer, unassigned; stereoisomer 1) [Example 69]
assigned.category: Condition not met

molecule: Cc1c2c(nn1C)C(C1CC1)OCCCCn1c(C(=O)O)c(CCCOc3cccc4ccccc34)c3ccc(Cl)c-2c31 (single isomer, unassigned; enantiomer 2) [Example 36]
assigned.category: Condition not met

molecule: CCc1c2c(nn1C)C(CCN1CCOCC1)OCCCCn1c(C(=O)O)c(CCCOc3cccc4ccccc34)c3ccc(F)c-2c31 (single isomer, unassigned; enantiomer 2) [Example 12]
assigned.category: Condition not met

molecule: CCC1OCCCCn2c(C(=O)O)c(CCCOc3cccc4ccccc34)c3ccc(Cl)c(c32)-c2c1nn(C)c2C (single isomer, unassigned; enantiomer 1) [Example 29]
assigned.category: Condition not met

molecule: CCc1c2c(nn1C)C(C(F)(F)F)OCCCCn1c(C(=O)O)c(CCCOc3cccc4ccccc34)c3ccc(Cl)c-2c31 (single isomer, unassigned; enantiomer 2) [Example 34]
assigned.category: Condition not met

molecule: CCc1c2c(nn1C)C(C(F)(F)F)OCCCCn1c(C(=O)O)c(CCCOc3cccc4ccccc34)c3ccc(Cl)c-2c31 (single isomer, unassigned; enantiomer 1) [Example 33]
assigned.category: Condition not met

molecule: CCc1c2c(nn1C)C(CC(C)(C)O)OCCCCn1c(C(=O)O)c(CCCOc3cccc4cc(F)ccc34)c3ccc(Cl)c-2c31 (single isomer, unassigned; enantiomer 21) [Example 54]
assigned.category: Condition not met

molecule: CCc1c2c(nn1C)C(CCOC)OCCCCn1c(C(=O)O)c(CCCOc3cccc4cc(F)ccc34)c3ccc(Cl)c-2c31 (single isomer, unassigned; enantiomer 2) [Example 43]
assigned.category: Condition not met

molecule: CCc1c2c(nn1C)C(CCOC)OCCCCn1c(C(=O)O)c(CCCOc3cccc4cc(F)ccc34)c3ccc(Cl)c-2c31 (single isomer, unassigned; enantiomer 1) [Example 42]
assigned.category: Condition met

molecule: CCC1OCCCCn2c(C(=O)O)c(CCCOc3cccc4ccccc34)c3ccc(Cl)c(c32)-c2c1nn(C)c2C (single isomer, unassigned; enantiomer 2) [Example 30]
assigned.category: Condition not met

molecule: CCc1c2c(nn1C)C(CCN1CCC(F)(F)C1)OCCCCn1c(C(=O)O)c(CCCOc3cccc4cc(F)ccc34)c3ccc(Cl)c-2c31 (single isomer, unassigned; enantiomer 2) [Example 57]
assigned.category: Condition not met

molecule: Cc1c2c(nn1C)C(C)OCCCCn1c(C(=O)O)c(CCCOc3cccc4ccccc34)c3cccc-2c31 (single isomer, unassigned; stereoisomer 1) [Example 2]
assigned.category: Condition not met

molecule: Cc1c2c(nn1C)C(C)OCCCCn1c(C(=O)O)c(CCCOc3cccc4ccccc34)c3cccc-2c31 (single isomer, unassigned; stereoisomer 2) [Example 3]
assigned.category: Condition not met

molecule: Cc1c2c(nn1C)C(CCN1CCOCC1)OCCCCn1c(C(=O)O)c(CCCOc3cccc4ccccc34)c3ccc(F)c-2c31 (single isomer, unassigned; enantiomer 1) [Example 8]
assigned.category: Condition met

molecule: Cc1c2c(nn1C)C(C1CC1)OCCCCn1c(C(=O)O)c(CCCOc3cccc4ccccc34)c3ccc(Cl)c-2c31 (single isomer, unassigned; enantiomer 1) [Example 35]
assigned.category: Condition not met

molecule: CCc1c2c(nn1C)C(CCC1CCOCC1)OCCCCn1c(C(=O)O)c(CCCOc3cccc4cc(F)ccc34)c3ccc(Cl)c-2c31 (single isomer, unassigned; enantiomer 1) [Example 63]
assigned.category: Condition met

molecule: CCc1c2c(nn1C)C(C1CC1)OCCCCn1c(C(=O)O)c(CCCOc3cccc4cc(F)ccc34)c3ccc(Cl)c-2c31 (single isomer, unassigned; enantiomer 2) [Example 40]
assigned.category: Condition not met

molecule: CCc1c2c(nn1C)C(CCN1CCC(F)(F)C1)OCCCCn1c(C(=O)O)c(CCCOc3cccc4cc(F)ccc34)c3ccc(Cl)c-2c31 (single isomer, unassigned; enantiomer 1) [Example 56]
assigned.category: Condition met

molecule: Cc1c2c(nn1C)C(CCN1CCOCC1)OCCCCn1c(C(=O)O)c(CCCOc3cccc4ccccc34)c3ccc(F)c-2c31 (single isomer, unassigned; enantiomer 2) [Example 9]
assigned.category: Condition not met

molecule: CCc1c2c(nn1C)C(CCC1CCOCC1)OCCCCn1c(C(=O)O)c(CCCOc3cccc4cc(F)ccc34)c3ccc(Cl)c-2c31 (single isomer, unassigned; enantiomer 2) [Example 64]
assigned.category: Condition not met

---

study.system: MCL-1 (Homo sapiens (Human), UniProt Q07820, K194A/K197A/R201A)
assay.summary: Protein-protein interaction assay MCL-1/Noxa BH3 peptide (MCL-1 assay, TR-FRET)
Type: binding
recorded.conditions: MCL-1 Assay IC50 (median)
Sequence (Q07820 whole entry, looked up, stated change not applied): as the sequence (Q07820 whole entry K194A/K197A/R201A, looked up) above, with A194K, A197K, A201R counted along it
# Lookup of reported IC50 keyed by entry
measured.quantity: IC50 (nM)

compound: CCc1c2c(nn1C)C(CCOC)OCCCCn1c(C(=O)O)c(CCCOc3cccc4cc(F)ccc34)c3ccc(Cl)c-2c31 (racemic)
study.system: MCL-1 (Homo sapiens (Human), UniProt Q07820, K194A/K197A/R201A)
measured.quantity: IC50
uom: nM
measurement: 0.52
--
compound: CCc1c2c(nn1C)C(CCN1CCOCC1)OCCCCn1c(C(=O)O)c(CCCOc3cccc4cc(F)ccc34)c3ccc(F)c-2c31 (single isomer, unassigned; enantiomer 1) [Example 50]
study.system: MCL-1 (Homo sapiens (Human), UniProt Q07820, K194A/K197A/R201A)
measured.quantity: IC50
uom: nM
measurement: 0.48
--
compound: Cc1c2c(nn1C)C(CCO)OCCCCn1c(C(=O)O)c(CCCOc3cccc4ccccc34)c3ccc(Cl)c-2c31 (racemic) [Example 26]
study.system: MCL-1 (Homo sapiens (Human), UniProt Q07820, K194A/K197A/R201A)
measured.quantity: IC50
uom: nM
measurement: 1.1

---

System: A2780 cells
assay.summary: Antiproliferation assay A2780 (Assay 7)
Assay type: cell-based
recorded.conditions: Homo sapiens, A2780, 72 h, read-out: Antiproli A2780 IC50 median, 72 h, CellTiter-Glo
Below, each of the compounds is paired with its reported IC50 value.
measured.quantity: IC50 (µM)

compound: CCc1c2c(nn1C)C(CCN1CCOCC1)OCCCCn1c(C(=O)O)c(CCCOc3cccc4ccccc34)c3ccc(F)c-2c31 (single isomer, unassigned; enantiomer 1)
uom: µM
measurement: 0.779
--
compound: Cc1c2c(nn1C)C(C)OCCCCn1c(C(=O)O)c(CCCOc3cccc4ccccc34)c3cccc-2c31 (single isomer, unassigned; stereoisomer 2)
uom: µM
measurement: 29.9

---

System: SUDHL10 cells
assay.summary: Induction of caspase-3/7 activity in SUDHL10 cells (Assay 4)
Format: cell-based
recorded.conditions: read-out: Caspase SUDHL10 EC50 (median); caspase-3/7 induction, 3 h
Description: Induction of Caspase-3/7 Activity Upon Treatment of Cells with Selected Compounds The BH3-domain of MCL-1 sequesters pro-apoptotic proteins, thereby inhibiting apoptosis. In contrast, MCL-1 inhibitors are expected to antagonize this effect leading to an increase in apoptosis, which can be determined by measuring the activity of caspase-3/7. […] Rim wells were excluded. […] Finally, luminescence was read at 0.1 ms, with a gain of 3000 using the PHERAstar FS microplate reader (BMG Labtech). […]
Rule for this label: fulfilled means EC50 is less than 8 µM; not fulfilled means EC50 is at least 8 µM.

compound: CCc1c2c(nn1C)C(CC(C)(C)O)OCCCCn1c(C(=O)O)c(CCCOc3cccc4cc(F)ccc34)c3ccc(Cl)c-2c31 (single isomer, unassigned; enantiomer 21) [Example 54]
assigned.category: not fulfilled
--
compound: CCc1c2c(nn1C)C(CCN1CCC(F)(F)C1)OCCCCn1c(C(=O)O)c(CCCOc3cccc4cc(F)ccc34)c3ccc(Cl)c-2c31 (single isomer, unassigned; enantiomer 1) [Example 56]
assigned.category: fulfilled
--
compound: CCc1c2c(nn1C)C(CCC1CCOCC1)OCCCCn1c(C(=O)O)c(CCCOc3cccc4cc(F)ccc34)c3ccc(Cl)c-2c31 (single isomer, unassigned; enantiomer 2) [Example 64]
assigned.category: fulfilled
--
compound: Cc1c2c(nn1C)C(CCN1CCOCC1)OCCCCn1c(C(=O)O)c(CCCOc3cccc4ccccc34)c3ccc(F)c-2c31 (single isomer, unassigned; enantiomer 2) [Example 9]
assigned.category: not fulfilled
--
compound: CCc1c2c(nn1C)C(CCOC)OCCCCn1c(C(=O)O)c(CCCOc3cccc4cc(F)ccc34)c3ccc(Cl)c-2c31 (single isomer, unassigned; enantiomer 1) [Example 42]
assigned.category: fulfilled
--
compound: CCc1c2c(nn1C)C(CCN1CCC(F)(F)C1)OCCCCn1c(C(=O)O)c(CCCOc3cccc4cc(F)ccc34)c3ccc(Cl)c-2c31 (single isomer, unassigned; enantiomer 2) [Example 57]
assigned.category: fulfilled
--
compound: CCC1OCCCCn2c(C(=O)O)c(CCCOc3cccc4ccccc34)c3ccc(Cl)c(c32)-c2c1nn(C)c2C (single isomer, unassigned; enantiomer 2) [Example 30]
assigned.category: not fulfilled
